Each item that follows carries a reported inhibition at 10 µM.
# TARGET DESC: ShaI/KChIP (Drosophila melanogaster, UniProt P17971)
# Construct: expressed in transfected cells; subclone 18-13-20
# Sequence (P17971 with tags, fused parts or gaps isoform P17971-1): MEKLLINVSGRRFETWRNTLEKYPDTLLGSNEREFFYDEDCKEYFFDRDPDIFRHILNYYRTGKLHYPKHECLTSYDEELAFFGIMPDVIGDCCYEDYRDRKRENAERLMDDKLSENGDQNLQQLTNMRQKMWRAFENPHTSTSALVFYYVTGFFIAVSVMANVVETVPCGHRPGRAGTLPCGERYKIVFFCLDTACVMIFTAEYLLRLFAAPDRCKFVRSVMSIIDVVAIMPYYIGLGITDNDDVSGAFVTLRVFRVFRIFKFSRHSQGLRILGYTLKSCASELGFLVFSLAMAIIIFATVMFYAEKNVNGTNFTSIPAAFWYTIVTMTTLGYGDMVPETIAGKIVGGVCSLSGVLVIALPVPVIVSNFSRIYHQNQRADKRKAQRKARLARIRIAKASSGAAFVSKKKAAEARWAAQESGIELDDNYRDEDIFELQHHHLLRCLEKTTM
# TEST METHOD NOTES: ShaI/KChIP FLIPR membrane potential assay, KCl depolarization
# Type: cell-based

COMPOUND	inhibition at 10 µM / %
O=C(NCc1cccc(C(F)(F)F)c1)c1cn(CCc2c[nH]c3ccccc23)c(=O)s1	35
CC1ON=C(Cc2ccccc2)N(CCc2c[nH]c3ccccc23)C1=O (stereo not shown)	29.6
CC1(c2ccccc2)C(=O)Nc2ccccc21 (stereo not shown)	42.6
CC1ON=C(c2ccccc2F)N(Cc2cccc(F)c2)C1=O (stereo not shown)	30.2
Cc1nc(CC2(c3cccc(F)c3)C(=O)Nc3cc(F)ccc32)cs1 (stereo not shown)	37.5
Cc1cccnc1C1=NOC(Cc2ccccc2)C(=O)N1CCc1ccccc1 (stereo not shown)	33.3
CC1=NOC(Cc2ccccc2)C(=O)N1CC(=O)c1ccccc1F (stereo not shown)	41.6
N#Cc1cccc(CC2(c3ccccc3)C(=O)Nc3ccc(OC(F)(F)F)cc32)c1 (stereo not shown)	32.1
O=C1Nc2cc(F)ccc2C1(Cc1ccc(C(F)(F)F)nc1)c1cccc(F)c1 (stereo not shown)	42.7
CC1ON=C(c2cccc(Cl)c2)N(Cc2ccc3c(c2)OCO3)C1=O (stereo not shown)	31.5
Cc1ccc(C2(Cc3csc(C)n3)C(=O)Nc3cccc(Cl)c32)cc1 (stereo not shown)	46
COc1ccc(C2(Cc3ccc(C(F)(F)F)o3)C(=O)Nc3ccc(F)cc32)c(OC)c1 (stereo not shown)	60.3
Cc1ccsc1C1(Cc2cccc(C#N)c2)C(=O)Nc2cc(F)ccc21 (stereo not shown)	58
Cc1nc(CC2(c3cccc(F)c3)C(=O)Nc3ccc(OC(F)(F)F)cc32)cs1 (stereo not shown)	34
COc1ccc(C(C)=O)cc1CC1(c2ccc3c(c2)OCO3)C(=O)Nc2ccccc21 (stereo not shown)	35.2
O=C1Nc2cc(Cl)cc(Cl)c2C1(Cc1ccncc1)c1ccccc1 (stereo not shown)	36.4
Cc1nc(CC2(c3sccc3C)C(=O)Nc3ccc(OC(F)(F)F)cc32)cs1 (stereo not shown)	37.8
O=C1Nc2ccc(F)cc2C1(Cc1ccccn1)c1ccc(Cl)cc1 (stereo not shown)	56.8
NC(=O)c1cccc(CC2(c3ccccc3)C(=O)Nc3c(Cl)cccc32)c1 (stereo not shown)	33.3
Cc1ccc(C2(Cc3ccncc3)C(=O)Nc3ccc(OC(F)(F)F)cc32)cc1 (stereo not shown)	29.1
Cc1ccc(C2(Cc3cccc(C(N)=O)c3)C(=O)Nc3cc(F)ccc32)cc1 (stereo not shown)	57.5
COC(=O)c1ccc(CC2(c3cccc(F)c3)C(=O)Nc3cccc(Cl)c32)o1 (stereo not shown)	41.5
O=C(NCc1cccc(C(F)(F)F)c1)c1cn(CCOc2ccc(F)cc2)c(=O)s1	30.2
Cc1ccc(C2(Cc3csc(C)n3)C(=O)Nc3cc(F)ccc32)cc1 (stereo not shown)	29.3
O=C1Nc2ccc(OC(F)(F)F)cc2C1(Cc1ccccn1)c1ccccc1 (stereo not shown)	39.1

The measured values listed here are drawn from patent US9029080B2.
